Test system: Escherichia coli TOP10;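 further: peptides expressed intracellularly from a pBAD plasmid library in pooled LB shake-flask culture, induced with 0.3% L-arabinose, DNA abundance read by NGS, three biological replicates, DESeq2 with apeglm shrinkage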
methodDescription: shrunken log2 fold change of peptide-encoding DNA abundance (4.5 h post-induction vs induction); higher = less antimicrobial activity (less host growth inhibition)
conditionLabel: time post-induction: 4.5 h; library: site-saturation at positions 5, 18, 19, 20
Binning rule for recorded shrunken log2 fold change: low bracket: < -0.1; middle bracket: ≥ -0.1 and < 0.07; high bracket: ≥ 0.07

Problem: Band of RRIRGRPPRLPRPRPRPSSPPRP ?
Result: middle bracket

Problem: Band of RRIRMRPPRLPRPRPRPDMKPRP ?
Result: high bracket

Problem: Band of RRIRERPPRLPRPRPRPYFPPRP ?
Result: low bracket

Problem: Band of RRIRMRPPRLPRPRPRPCKYPRP ?
Result: middle bracket

Problem: Band of RRIRYRPPRLPRPRPRPVPKPRP ?
Result: high bracket
